Taken from ChEMBL document CHEMBL5230144.

- Assay Overview: Cytotoxicity against human mesenchymal bone marrow stem cells measured after 48 hrs by MTT assay
- Assay type: toxicity, cell-based
Binary call on IC50 at 48 h with cut-off 2000 nM: strictly below means T, and equality or higher means F.

Examples from the recorded data:
                               given_smiles  class
0  C#CCOC(=O)[C@]1(C)CC[C@]2(C)CC[C@]3(C)C4=CC=C5C(=CC(=O)C(OC(=O)N(CCC)CCC)=C5C)[C@]4(C)CC[C@@]3(C)[C@@H]2C1      T
1  C#CCOC(=O)[C@]1(C)CC[C@]2(C)CC[C@]3(C)C4=CC=C5C(=CC(=O)C(OC(=O)/C=C/C)=C5C)[C@]4(C)CC[C@@]3(C)[C@@H]2C1      F
2  C#CCOC(=O)[C@]1(C)CC[C@]2(C)CC[C@]3(C)C4=CC=C5C(=CC(=O)C(OC(=O)N6CCN(c7cccc(OC)c7)CC6)=C5C)[C@]4(C)CC[C@@]3(C)[C@@H]2C1      T
3  C#CCOC(=O)[C@]1(C)CC[C@]2(C)CC[C@]3(C)C4=CC=C5C(=CC(=O)C(OC(=O)/C=C/c6cccc(C)c6)=C5C)[C@]4(C)CC[C@@]3(C)[C@@H]2C1      F
4  C#CCOC(=O)[C@]1(C)CC[C@]2(C)CC[C@]3(C)C4=CC=C5C(=CC(=O)C(OC(=O)C=C)=C5C)[C@]4(C)CC[C@@]3(C)[C@@H]2C1      F

Consider `C#CCOC(=O)[C@]1(C)CC[C@]2(C)CC[C@]3(C)C4=CC=C5C(=CC(=O)C(OC(=O)N6CCCC6)=C5C)[C@]4(C)CC[C@@]3(C)[C@@H]2C1` . Does its IC50 at 48 h lie strictly below 2000 nM?
F

Consider `C#CCOC(=O)[C@]1(C)CC[C@]2(C)CC[C@]3(C)C4=CC=C5C(=CC(=O)C(OC(=O)N6CCCCC6)=C5C)[C@]4(C)CC[C@@]3(C)[C@@H]2C1` . Does its IC50 at 48 h lie strictly below 2000 nM?
F

Consider `C#CCOC(=O)[C@]1(C)CC[C@]2(C)CC[C@]3(C)C4=CC=C5C(=CC(=O)C(OC(=O)CCC)=C5C)[C@]4(C)CC[C@@]3(C)[C@@H]2C1` . Does its IC50 at 48 h lie strictly below 2000 nM?
F

Consider `C#CCOC(=O)[C@]1(C)CC[C@]2(C)CC[C@]3(C)C4=CC=C5C(=CC(=O)C(OC(=O)N(C)CCCC)=C5C)[C@]4(C)CC[C@@]3(C)[C@@H]2C1` . Does its IC50 at 48 h lie strictly below 2000 nM?
T

Consider `C#CCOC(=O)[C@]1(C)CC[C@]2(C)CC[C@]3(C)C4=CC=C5C(=CC(=O)C(OC(=O)N6CCN(c7ccccc7OC)CC6)=C5C)[C@]4(C)CC[C@@]3(C)[C@@H]2C1` . Does its IC50 at 48 h lie strictly below 2000 nM?
T

Consider `C#CCOC(=O)[C@]1(C)CC[C@]2(C)CC[C@]3(C)C4=CC=C5C(=CC(=O)C(OC(=O)N(CC)CC)=C5C)[C@]4(C)CC[C@@]3(C)[C@@H]2C1` . Does its IC50 at 48 h lie strictly below 2000 nM?
F

Consider `C#CCOC(=O)[C@]1(C)CC[C@]2(C)CC[C@]3(C)C4=CC=C5C(=CC(=O)C(OC(C)=O)=C5C)[C@]4(C)CC[C@@]3(C)[C@@H]2C1` . Does its IC50 at 48 h lie strictly below 2000 nM?
F

----------
- Assay Overview: Cytotoxicity against human mesenchymal bone marrow stem cells measured after 48 hrs by MTT assay
- Format: toxicity, cell-based
Binary call on IC50 at 48 h with cut-off 2000 nM: strictly below means yes, and equality or higher means no.

Examples from the recorded data:
In [3]: df
Out[3]:
                               given_smiles  class
0  C#CCOC(=O)[C@]1(C)CC[C@]2(C)CC[C@]3(C)C4=CC=C5C(=CC(=O)C(OC(=O)N6CCN(c7ccccc7)CC6)=C5C)[C@]4(C)CC[C@@]3(C)[C@@H]2C1    yes
1  C#CCOC(=O)[C@]1(C)CC[C@]2(C)CC[C@]3(C)C4=CC=C5C(=CC(=O)C(OC(=O)N(CCCC)CCCC)=C5C)[C@]4(C)CC[C@@]3(C)[C@@H]2C1    yes
2  C#CCOC(=O)[C@]1(C)CC[C@]2(C)CC[C@]3(C)C4=CC=C5C(=CC(=O)C(OC(=O)C(=C)C)=C5C)[C@]4(C)CC[C@@]3(C)[C@@H]2C1     no
3  C#CCOC(=O)[C@]1(C)CC[C@]2(C)CC[C@]3(C)C4=CC=C5C(=CC(=O)C(OC(=O)c6ccc(Br)cc6)=C5C)[C@]4(C)CC[C@@]3(C)[C@@H]2C1     no

Note: attention shifts to another entry.
Consider `C#CCOC(=O)[C@]1(C)CC[C@]2(C)CC[C@]3(C)C4=CC=C5C(=CC(=O)C(OC(=O)N6CCC(N7CCCCC7)CC6)=C5C)[C@]4(C)CC[C@@]3(C)[C@@H]2C1` . Does its IC50 at 48 h lie strictly below 2000 nM?
no
